Tested on: Dd2
Assay method text: Cross-resistance EC50 assay, Dd2 parent
Format: cell-based, Plasmodium falciparum
Applied conditions: Plasmodium falciparum, DD2, 72 h, read-out: Dd2 (PARENT) Average EC50
Record form. Attribute: log10(EC50). Fill in for each entry.
Hello, just confirming the data are log10 of EC50 with units of nM.

Molecule | Outcome measure | Measured number
CN(C)CCCNCc1ccc(-c2ccc(Cl)c(Cl)c2)o1 | log10(EC50) | 2.63
Cc1ccc(Oc2ncccc2C(=O)Cc2cccc3cccnc23)c(C)c1 | log10(EC50) | 2.38

Look at each molecule and report its log10(EC50).
1. COC(=O)c1ccc(C2C3=C(O)CC(c4ccc(F)cc4)CC3=Nc3ccccc3N2C(=O)c2ccccc2)cc1 (stereo not shown)
2. CC(C)(C)OC(=O)N1CCN(c2ccccc2NC(=O)c2cccc(C(F)(F)F)c2Oc2ccc(F)cc2)CC1

Response:
2.18
2.57

---

Test system: 3D7
Assay method text: Cross-resistance EC50 assay, 3D7 parent / sensitive strain
Format: cell-based
Applied conditions: Plasmodium falciparum; SYBR green 72 hour assay; synchronized parasites; 384-well format; 3D7 parent; read-out: 3D7 (PARENT) Average EC50
Outcome measure: pEC50
Numbers only, as −log10 of the molar value.

Solved entries (count: 2):
Smiles repr | pEC50
CN(C)CCCNCc1ccc(-c2ccc(Cl)c(Cl)c2)o1 | 6.54
COc1ccc2c3c([nH]c2c1)[C@H](CO)N(C(C)=O)CC31CCN(C(=O)Nc2ccccc2F)CC1 | 6.90

Could you now look at the following compound, please?
Prompt: Field request: pEC50 | item: `COc1ccc(NC(=O)N2CCCCN3[C@H](CN)[C@H](c4ccc(C#Cc5ccccc5)cc4)[C@@H]3C2)cc1`
Response: 7.66

---

Test system: HepG2
Assay method text: Hepatocyte toxicity
Type: cell-based, human
Applied conditions: toxicity fold shift for the liver stage (hepatocyte toxicity vs liver stage EC50)
Lab note: cut-off is 7. Strictly less in Liver Stage / Hepatocyte Toxicity is met. Exactly 7 or more is not met.

Molecule | Label class
O=C(Nc1ccc(Cl)c(Cl)c1)Nc1ccc(Cl)c(Cl)c1 [MMV665852] | not met
Cc1ccc(Oc2ncccc2C(=O)Cc2cccc3cccnc23)c(C)c1 [MMV020746] | met

Prompt: Lab note: confirm whether the reported Liver Stage / Hepatocyte Toxicity for this molecule is below 7, equality not counting. molecule: CC(C)c1cccc(C(NC(=O)C2Cc3ccccc3CN2C(=O)c2cccc(N3CCOCC3)c2)C2CCCC2)c1 (centres unmarked) [MMV028038]
Response: met

Prompt: Does CNCc1ccc2nc(-c3coc(Cc4cc(Cl)ccc4OCC(C)C)n3)[nH]c2c1.Cl.Cl [MMV026596] have Liver Stage / Hepatocyte Toxicity strictly under 7?
Response: met

Prompt: Does Cc1ccc(Cn2c(N3CCC(C(=O)NCc4cccs4)CC3)nc3ccccc32)cc1 [MMV007564] have Liver Stage / Hepatocyte Toxicity strictly under 7?
Response: not met

Prompt: For Cl.c1ccc2c(NCCCCCCNc3c4c(nc5ccccc35)CCCC4)c3c(nc2c1)CCCC3 [MMV019555] , is the recorded Liver Stage / Hepatocyte Toxicity below the cut-off of 7?
Response: not met

Prompt: Threshold test, Liver Stage / Hepatocyte Toxicity < 7: c1cncc(-c2cc(N3CCC(CN4CCOCC4)CC3)nc(-c3ccncc3)n2)c1 [MMV668399]
Response: not met

Prompt: Hello, I'm reviewing records and need to know if Liver Stage / Hepatocyte Toxicity of CCCOCc1cc(CN2CCN(c3cccc(Cl)c3)CC2)c(O)c2ncccc12 [MMV000787] is below 7. Could you check?
Response: met

Prompt: For COc1cc(C(=O)ON=C(N)Cc2cccc3ccccc23)cc(OC)c1OC [MMV666687] , is the recorded Liver Stage / Hepatocyte Toxicity below the cut-off of 7?
Response: met
